These entries and their values trace back to patent US6703413B2.

Tested on: A-549 lung tumor cells
Test: Cell growth inhibition, 3 d exposure, cell counting
Type: cell-based
Conditions: Homo sapiens, A549, 72 h
Parameter: pIC50
Recall that pIC50 is obtained by taking minus log10 of the concentration measured in molar.

Prompt: For the record `O=S1(=O)CCN(CN2CCS(=O)(=O)NC2)CN1` , what value of pIC50 is listed for A-549 lung tumor cells?
Completion: 4.57

----------
Test system: H-596 lung tumor cells
Experiment: Cell growth inhibition, 3 d exposure, cell counting
Assay type: cell-based, human
Conditions: Homo sapiens, NCI-H596, 72 h
Parameter: IC50

Prompt: For `O=S1(=O)CCN(CN2CCS(=O)(=O)NC2)CN1` , what is its reported IC50?
Completion: ~35 µM
